assay.system: Dual specificity testis-specific protein kinase 2 (Homo sapiens, UniProt Q96S53); also: in the data inactive means no Kd found up to 30 µM
Sequence (Q96S53 whole entry): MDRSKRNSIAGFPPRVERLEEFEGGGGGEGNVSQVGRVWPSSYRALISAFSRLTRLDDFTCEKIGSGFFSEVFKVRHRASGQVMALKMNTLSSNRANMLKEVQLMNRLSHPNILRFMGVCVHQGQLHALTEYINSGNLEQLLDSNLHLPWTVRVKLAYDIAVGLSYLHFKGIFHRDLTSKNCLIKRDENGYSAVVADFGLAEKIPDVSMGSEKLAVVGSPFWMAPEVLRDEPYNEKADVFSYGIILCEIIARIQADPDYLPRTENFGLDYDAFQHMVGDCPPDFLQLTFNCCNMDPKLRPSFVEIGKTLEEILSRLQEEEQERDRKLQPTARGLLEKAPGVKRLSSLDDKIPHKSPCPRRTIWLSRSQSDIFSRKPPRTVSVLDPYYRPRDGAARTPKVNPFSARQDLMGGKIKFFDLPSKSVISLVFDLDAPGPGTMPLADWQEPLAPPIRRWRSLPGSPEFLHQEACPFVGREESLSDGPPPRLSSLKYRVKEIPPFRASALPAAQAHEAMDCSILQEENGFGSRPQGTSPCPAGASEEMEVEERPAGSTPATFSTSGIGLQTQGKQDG
The source made the active and inactive calls.
Kd overview

Some entries whose results are on file:
                                   compound              result
0  C=CC(=O)Nc1cc2c(Nc3ccc(F)c(Cl)c3)ncnc2cc1C#CC(C)(C)N1CCN(C)CC1 [AV-412 FREE BASE]  > 30 µM (inactive)
1  C=CC(=O)N1CCC[C@H](n2c(=O)n(-c3ccc(Oc4ccccc4)cc3)c3c(N)ncnc32)C1  > 30 µM (inactive)

Lab note: next compound to report on.
Missing value: Kd, Dual specificity testis-specific protein kinase 2 (Homo sapiens, UniProt Q96S53), entry Cc1nc2cc(-n3ncc(C(=O)c4cc5ccccc5[nH]4)c3N)ccc2[nH]1 . Fill in?
> 30 µM (inactive)

###

assay.system: Aurora kinase B (Homo sapiens, UniProt Q96GD4); also: in the data inactive means no Kd found up to 30 µM
Sequence (Q96GD4 whole entry): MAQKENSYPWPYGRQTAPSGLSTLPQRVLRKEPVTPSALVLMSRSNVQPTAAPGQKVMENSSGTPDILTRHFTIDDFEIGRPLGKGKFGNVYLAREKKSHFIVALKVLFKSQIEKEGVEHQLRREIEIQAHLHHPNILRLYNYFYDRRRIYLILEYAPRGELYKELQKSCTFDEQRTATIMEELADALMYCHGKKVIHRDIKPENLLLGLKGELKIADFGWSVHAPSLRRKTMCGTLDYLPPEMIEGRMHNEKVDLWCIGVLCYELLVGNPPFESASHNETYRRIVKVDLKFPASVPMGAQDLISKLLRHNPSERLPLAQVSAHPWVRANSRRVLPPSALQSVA
The source made the active and inactive calls.
Result category, one only: true (active), false (inactive)

>>> df
                                   compound  category
0  CCS(=O)(=O)c1cccc(-c2cc(C(=O)NC3CCN(C)CC3)c(C)c3[nH]c4ncc(C)cc4c23)c1      true
1  O=c1[nH]ccc2cc(OC3CCNCC3)ccc12 [SAR-407899 FREE BASE]     false
2  COc1ccc(S(=O)(=O)N(C(C)=O)c2ccccc2/C=C/c2cc[n+]([O-])cc2)cc1     false

Recorded test outcome, item Cn1cc(-c2cnc3ccc4ccc(CS(=O)(=O)NCc5ccccn5)cc4c(=O)c3c2)cn1
false

Recorded test outcome, item Cc1cnc(NC(=O)Nc2cc(Br)c(C)cc2OC[C@@H]2CNCCO2)cn1
false

Recorded test outcome, item Cn1ncc(Cl)c1-c1cc(C(=O)N[C@H](CN)Cc2ccc(F)c(F)c2)oc1Cl
false

###

assay.system: Dual specificity mitogen-activated protein kinase kinase 2 (Homo sapiens, UniProt P36507); also: in the data inactive means no Kd found up to 30 µM
Sequence (P36507 whole entry): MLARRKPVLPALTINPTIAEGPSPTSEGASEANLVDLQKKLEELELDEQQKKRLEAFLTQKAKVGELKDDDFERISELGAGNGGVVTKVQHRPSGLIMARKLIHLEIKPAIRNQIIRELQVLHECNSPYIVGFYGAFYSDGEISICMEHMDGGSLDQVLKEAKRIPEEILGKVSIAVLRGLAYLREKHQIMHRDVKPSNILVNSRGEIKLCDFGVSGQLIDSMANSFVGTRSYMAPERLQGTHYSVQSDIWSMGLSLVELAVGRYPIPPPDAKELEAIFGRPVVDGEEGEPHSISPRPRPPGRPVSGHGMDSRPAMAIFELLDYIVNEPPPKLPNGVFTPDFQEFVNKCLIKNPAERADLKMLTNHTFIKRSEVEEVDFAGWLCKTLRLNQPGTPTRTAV
Counter-ions that a name gives are not always drawn. Calls of active or inactive are those of the source.
Result category, one only: active, inactive

Use the examples below as a reference point.
>>> df
                                   compound                              assay_system  category
0  COc1ncc(-c2ccc3nccc(-c4ccnnc4)c3c2)cc1NS(=O)(=O)c1ccc(F)cc1F  Dual specificity mitogen-activated protein kinase kinase 2 (Homo sapiens, UniProt P36507)  inactive
1  CCS(=O)(=O)N1CCN(c2ccc(Nc3ncc(C(N)=O)c(NC4CC4)n3)cc2)CC1 [Cerdulatinib Hydrochloride]  Dual specificity mitogen-activated protein kinase kinase 2 (Homo sapiens, UniProt P36507)  inactive
2  CCS(=O)(=O)c1cccc(-c2cc(C(=O)NC3CCN(C)CC3)c(C)c3[nH]c4ncc(C)cc4c23)c1  Dual specificity mitogen-activated protein kinase kinase 2 (Homo sapiens, UniProt P36507)    active

Recorded test outcome, item C[C@@H](Oc1cc(C(=O)Nc2ccc(C(=O)N3CCN(C)CC3)cc2)nnc1N)c1c(Cl)ccc(F)c1Cl
inactive

Recorded test outcome, item Cn1cnc2c(F)c(Nc3ccc(Br)cc3F)c(C(=O)NOCCO)cc21
active

###

assay.system: Mitogen-activated protein kinase 9 (Homo sapiens); also: in the data inactive means no Kd found up to 30 µM
Sequence (P45984 whole entry): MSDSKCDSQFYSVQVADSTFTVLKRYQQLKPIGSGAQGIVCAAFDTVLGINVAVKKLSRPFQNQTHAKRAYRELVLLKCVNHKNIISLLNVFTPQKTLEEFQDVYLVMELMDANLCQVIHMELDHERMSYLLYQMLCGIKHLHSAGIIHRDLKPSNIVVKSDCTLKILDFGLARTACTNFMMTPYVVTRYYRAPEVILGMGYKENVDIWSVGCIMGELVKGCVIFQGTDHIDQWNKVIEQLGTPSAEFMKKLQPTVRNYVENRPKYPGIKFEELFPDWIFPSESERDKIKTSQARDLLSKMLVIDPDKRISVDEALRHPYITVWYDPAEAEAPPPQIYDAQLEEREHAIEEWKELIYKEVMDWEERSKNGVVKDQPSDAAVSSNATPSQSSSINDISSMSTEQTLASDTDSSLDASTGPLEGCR
The source made the active and inactive calls.
Result category, one only: active, inactive

>>> print(df.to_string())
                  compound_structure_string  category
0  NC1(c2ccc(-c3nc4ccn5c(=O)[nH]nc5c4cc3-c3ccccc3)cc2)CCC1  inactive
1  Cc1nc(Nc2n[nH]c3c2CN(C(=O)N[C@H](CN(C)C)c2ccccc2)C3(C)C)c2sccc2n1  inactive
2  O=C(Nc1c[nH]nc1-c1nc2cc(CN3CCOCC3)ccc2[nH]1)NC1CC1    active

# input for lookup
Recorded test outcome, item CCCCCCCCCCCCCCCCCCOP(=O)([O-])OC1CC[N+](C)(C)CC1
inactive

###

assay.system: Ribosomal protein S6 kinase alpha-6 (Homo sapiens); also: in the data inactive means no Kd found up to 30 µM
Sequence (Q9UK32 whole entry): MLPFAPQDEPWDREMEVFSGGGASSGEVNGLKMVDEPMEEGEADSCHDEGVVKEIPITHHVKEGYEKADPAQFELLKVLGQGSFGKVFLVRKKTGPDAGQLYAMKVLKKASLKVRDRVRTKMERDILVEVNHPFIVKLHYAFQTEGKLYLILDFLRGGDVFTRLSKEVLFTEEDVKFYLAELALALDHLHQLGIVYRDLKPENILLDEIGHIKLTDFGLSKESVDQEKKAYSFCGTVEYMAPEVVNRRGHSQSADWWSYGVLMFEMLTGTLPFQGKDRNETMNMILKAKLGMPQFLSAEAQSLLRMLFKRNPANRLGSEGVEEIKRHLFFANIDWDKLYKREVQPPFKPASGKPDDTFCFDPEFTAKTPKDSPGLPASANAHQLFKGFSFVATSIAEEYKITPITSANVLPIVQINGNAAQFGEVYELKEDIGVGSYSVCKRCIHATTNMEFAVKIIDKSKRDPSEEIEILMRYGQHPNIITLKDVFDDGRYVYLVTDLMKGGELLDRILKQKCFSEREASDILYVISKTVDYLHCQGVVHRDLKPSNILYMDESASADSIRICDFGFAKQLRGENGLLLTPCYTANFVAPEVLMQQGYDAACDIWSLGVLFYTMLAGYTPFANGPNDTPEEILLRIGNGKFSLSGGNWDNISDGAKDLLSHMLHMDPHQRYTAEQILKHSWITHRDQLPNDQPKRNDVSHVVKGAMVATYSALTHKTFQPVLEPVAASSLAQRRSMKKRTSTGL
Calls of active or inactive are those of the source.
Result category, one only: active, inactive

compound	category
CCn1c(C(=O)N(C2CC2)C2CC2)cc2c3c(ncn3C)c(Nc3cc(C)n(C)n3)nc21	inactive
Cn1ncc(Cl)c1-c1cc(C(=O)N[C@H](CN)Cc2ccc(F)c(F)c2)oc1Cl	inactive
CNC(=O)c1cccc2cc(Oc3ccnc4cc(OCC5(N)CC5)c(OC)cc34)ccc12	inactive

Recorded test outcome, item NC(=O)c1c(OCc2c(F)cc(Br)cc2F)nsc1NC(=O)NCCCCN1CCCC1
inactive

Recorded test outcome, item C[C@@H](N)c1ccc(C(=O)Nc2ccnc3[nH]ccc23)cc1
inactive

Recorded test outcome, item O=C1NC(=O)[C@@H](c2cn3c4c(cccc24)CCC3)[C@@H]1c1c[nH]c2ccccc12 [TIVANTINIB]
inactive

Recorded test outcome, item COc1ncc(-c2ccc3nccc(-c4ccnnc4)c3c2)cc1NS(=O)(=O)c1ccc(F)cc1F
inactive

Recorded test outcome, item CN1C/C=C/CCOc2cccc(c2)-c2ccnc(n2)Nc2cccc(c2)C1
inactive

Recorded test outcome, item C#Cc1cccc(Nc2ncnc3cc(OC)c(OCCCCCCC(=O)NO)cc23)c1
inactive

Recorded test outcome, item CO[C@H]1C[C@@H]2CC[C@@H](C)[C@@](O)(O2)C(=O)C(=O)N2CCCC[C@H]2C(=O)O[C@H]([C@H](C)C[C@@H]2CC[C@@H](O)[C@H](OC)C2)CC(=O)[C@H](C)/C=C(\C)[C@@H](O)[C@@H](OC)C(=O)[C@H](C)C[C@H](C)/C=C/C=C/C=C/1C
inactive

Recorded test outcome, item Cn1cc(-c2cnn3c(N)c(Br)c([C@@H]4CCCNC4)nc23)cn1
active

Recorded test outcome, item Cc1nc(Nc2n[nH]c3c2CN(C(=O)N[C@H](CN(C)C)c2ccccc2)C3(C)C)c2sccc2n1
active

Recorded test outcome, item O=C(Nc1nc2cccc(-c3ccc(CN4CCS(=O)(=O)CC4)cc3)n2n1)C1CC1
inactive

Recorded test outcome, item Cc1nc2cc(-c3nn(C(C)C)c4ncnc(N)c34)ccc2o1
inactive

Recorded test outcome, item CO[C@H]1C[C@@H]2CC[C@@H](C)[C@@](O)(O2)C(=O)C(=O)N2CCCC[C@H]2C(=O)O[C@H]([C@H](C)C[C@@H]2CC[C@@H](OC(=O)C(C)(CO)CO)[C@H](OC)C2)CC(=O)[C@H](C)/C=C(\C)[C@@H](O)[C@@H](OC)C(=O)[C@H](C)C[C@H](C)/C=C/C=C/C=C/1C
inactive

###

assay.system: Cyclin-dependent kinase 7 (Homo sapiens); also: in the data inactive means no Kd found up to 30 µM
Sequence (P50613 whole entry): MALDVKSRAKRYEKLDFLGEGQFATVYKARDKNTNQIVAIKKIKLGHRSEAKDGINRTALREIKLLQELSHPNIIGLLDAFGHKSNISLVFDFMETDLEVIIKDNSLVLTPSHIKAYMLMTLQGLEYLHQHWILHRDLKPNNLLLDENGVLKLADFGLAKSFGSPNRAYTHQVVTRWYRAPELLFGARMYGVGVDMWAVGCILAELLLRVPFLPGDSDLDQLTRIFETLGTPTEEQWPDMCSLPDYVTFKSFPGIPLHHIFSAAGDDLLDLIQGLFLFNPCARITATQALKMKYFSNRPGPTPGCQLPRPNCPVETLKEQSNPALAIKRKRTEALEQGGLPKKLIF
The source made the active and inactive calls.
Result category, one only: 1 for active, -1 for inactive

compound.structure.string	category
CO[C@H]1C[C@@H]2CC[C@@H](C)[C@@](O)(O2)C(=O)C(=O)N2CCCC[C@H]2C(=O)O[C@H]([C@H](C)C[C@@H]2CC[C@@H](O)[C@H](OC)C2)CC(=O)[C@H](C)/C=C(\C)[C@@H](O)[C@@H](OC)C(=O)[C@H](C)C[C@H](C)/C=C/C=C/C=C/1C	-1
COc1ccc(S(=O)(=O)N(C(C)=O)c2ccccc2/C=C/c2cc[n+]([O-])cc2)cc1	-1
Cc1nc2cc(-n3ncc(C(=O)c4cc5ccccc5[nH]4)c3N)ccc2[nH]1	-1

Recorded test outcome, item CN1C/C=C/CCOc2cccc(c2)-c2ccnc(n2)Nc2cccc(c2)C1
1

Recorded test outcome, item CO[C@H]1C[C@@H]2CC[C@@H](C)[C@@](O)(O2)C(=O)C(=O)N2CCCC[C@H]2C(=O)O[C@H]([C@H](C)C[C@@H]2CC[C@@H](OP(C)(C)=O)[C@H](OC)C2)CC(=O)[C@H](C)/C=C(\C)[C@@H](O)[C@@H](OC)C(=O)[C@H](C)C[C@H](C)/C=C/C=C/C=C/1C
-1

###

assay.system: Serine/threonine-protein kinase SIK2 (Homo sapiens, UniProt Q9H0K1); also: in the data inactive means no Kd found up to 30 µM
Sequence (Q9H0K1 whole entry): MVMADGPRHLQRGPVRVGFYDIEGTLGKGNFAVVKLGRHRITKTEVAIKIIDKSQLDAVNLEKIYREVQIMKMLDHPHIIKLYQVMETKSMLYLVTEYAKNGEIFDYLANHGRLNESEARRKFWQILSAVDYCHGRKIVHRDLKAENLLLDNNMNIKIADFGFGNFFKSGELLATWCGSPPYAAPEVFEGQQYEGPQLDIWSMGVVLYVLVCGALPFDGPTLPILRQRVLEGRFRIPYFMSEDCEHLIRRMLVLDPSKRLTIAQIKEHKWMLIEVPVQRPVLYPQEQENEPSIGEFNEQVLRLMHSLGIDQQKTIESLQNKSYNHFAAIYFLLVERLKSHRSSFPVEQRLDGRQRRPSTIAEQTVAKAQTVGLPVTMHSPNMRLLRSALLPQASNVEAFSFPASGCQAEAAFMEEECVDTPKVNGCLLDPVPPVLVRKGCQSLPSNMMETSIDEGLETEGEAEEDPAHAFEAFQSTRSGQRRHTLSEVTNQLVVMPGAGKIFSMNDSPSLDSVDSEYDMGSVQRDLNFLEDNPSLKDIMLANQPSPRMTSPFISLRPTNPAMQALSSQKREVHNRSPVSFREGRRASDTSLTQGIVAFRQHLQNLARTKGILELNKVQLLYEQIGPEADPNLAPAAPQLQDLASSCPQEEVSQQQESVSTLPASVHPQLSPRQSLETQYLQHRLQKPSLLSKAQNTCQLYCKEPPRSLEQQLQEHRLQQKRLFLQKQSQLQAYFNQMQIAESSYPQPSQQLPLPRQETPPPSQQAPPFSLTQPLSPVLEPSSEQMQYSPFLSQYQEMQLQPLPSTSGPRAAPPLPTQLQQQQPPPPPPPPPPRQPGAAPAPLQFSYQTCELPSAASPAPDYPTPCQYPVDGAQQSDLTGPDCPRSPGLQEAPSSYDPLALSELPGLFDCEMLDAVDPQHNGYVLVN
Counter-ions that a name gives are not always drawn. Calls of active or inactive are those of the source.
Result category, one only: y for active, n for inactive

Use the examples below as a reference point.
compound	assay.system	category
CC(=O)c1cnc2ccc(-c3cc(Cl)c(O)c(Cl)c3)nc2c1N[C@H]1CC[C@H](CN(C)C)CC1	Serine/threonine-protein kinase SIK2 (Homo sapiens, UniProt Q9H0K1)	y
Cc1nc2cc(-n3ncc(C(=O)c4cc5ccccc5[nH]4)c3N)ccc2[nH]1	Serine/threonine-protein kinase SIK2 (Homo sapiens, UniProt Q9H0K1)	n
CO[C@H]1C[C@@H]2CC[C@@H](C)[C@@](O)(O2)C(=O)C(=O)N2CCCC[C@H]2C(=O)O[C@H]([C@H](C)C[C@@H]2CC[C@@H](OC(=O)C(C)(CO)CO)[C@H](OC)C2)CC(=O)[C@H](C)/C=C(\C)[C@@H](O)[C@@H](OC)C(=O)[C@H](C)C[C@H](C)/C=C/C=C/C=C/1C	Serine/threonine-protein kinase SIK2 (Homo sapiens, UniProt Q9H0K1)	n
COc1c(OCCCN2CCOCC2)ccc2c1N=C(NC(=O)c1cnc(N)nc1)N1CCN=C21	Serine/threonine-protein kinase SIK2 (Homo sapiens, UniProt Q9H0K1)	n
CNC(=O)c1cc(Oc2ccc(NC(=O)Nc3cc(C(C)(C)C)nn3-c3ccc4ncccc4c3)c(F)c2)ccn1	Serine/threonine-protein kinase SIK2 (Homo sapiens, UniProt Q9H0K1)	n

Recorded test outcome, item Cc1cc(C(=O)NOCCO)c(Nc2ccc(I)cc2F)n(C)c1=O
n

Recorded test outcome, item CCS(=O)(=O)N1CCN(c2ccc(Nc3ncc(C(N)=O)c(NC4CC4)n3)cc2)CC1 [Cerdulatinib Hydrochloride]
y

Recorded test outcome, item CCNC(=O)C#Cc1ccc2c(c1)NC(=O)/C2=C(\Nc1ccc(CN(C)C)cc1)c1ccccc1
y

Recorded test outcome, item CC(C)c1cc(CNc2nc(Nc3cc(C4CC4)[nH]n3)cc(N3CCN(C)CC3)n2)on1
y

Recorded test outcome, item COc1cc([C@@H]2c3cc4c(cc3[C@H](O)[C@H]3COC(=O)[C@@H]23)OCO4)cc(OC)c1OC
n

Recorded test outcome, item O=c1[nH]ccc2cc(OC3CCNCC3)ccc12 [SAR-407899 FREE BASE]
n

Recorded test outcome, item Cc1cccc(-c2nn3c(c2-c2ccnc4ccc(C(N)=O)cc24)CCC3)n1
n

Recorded test outcome, item FC(F)(F)c1ccc(/C=C/c2nc(COc3ccc(CCCCn4ccnn4)cc3)co2)cc1
n

Recorded test outcome, item O=C(Nc1c[nH]nc1-c1nc2cc(CN3CCOCC3)ccc2[nH]1)NC1CC1
y

Recorded test outcome, item CCS(=O)(=O)c1cccc(-c2cc(C(=O)NC3CCN(C)CC3)c(C)c3[nH]c4ncc(C)cc4c23)c1
y

Recorded test outcome, item O=C(Cc1ccc(-c2ccc(OCCN3CCOCC3)cc2)cn1)NCc1ccccc1
n

Recorded test outcome, item CN1C/C=C/CCOc2cccc(c2)-c2ccnc(n2)Nc2cccc(c2)C1
n

Recorded test outcome, item NC1(c2ccc(-c3nc4ccn5c(=O)[nH]nc5c4cc3-c3ccccc3)cc2)CCC1
n

Recorded test outcome, item C[C@@H](NC(=O)c1ncnc(N)c1Cl)c1ncc(C(=O)Nc2cc(C(F)(F)F)c(Cl)cn2)s1
n
